TARGET OR TEST SYSTEM: T1, RAGE-Fc chimera protein (BioTechne, 1145-RG) (UniProt Q15109 24-344)
T1 construct: Bought reagent; also called Fc-RAGE; not shown: CH domain of IgG (Fc)
T1 sequence (Q15109 24-344, change not shown): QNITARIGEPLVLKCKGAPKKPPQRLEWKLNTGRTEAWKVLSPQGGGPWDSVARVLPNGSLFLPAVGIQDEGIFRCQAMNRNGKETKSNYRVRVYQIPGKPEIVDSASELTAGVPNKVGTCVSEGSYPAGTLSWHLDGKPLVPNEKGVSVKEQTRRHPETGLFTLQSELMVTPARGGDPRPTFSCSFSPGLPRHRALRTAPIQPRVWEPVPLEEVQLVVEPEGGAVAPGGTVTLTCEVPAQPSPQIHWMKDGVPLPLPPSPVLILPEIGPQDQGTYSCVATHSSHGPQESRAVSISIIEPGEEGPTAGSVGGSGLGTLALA
ASSAY SUMMARY: BLI: RAGE-Fc on AHC sensors, HMGB1 construct 0-25 µM in solution; kinetics plot
Listing of recorded koff by entry.
The response must be a number in s⁻¹ with no trailing unit.

disulfide HMGB1, full-length (ligand, disulfide bond between Cys 22 and Cys 44, also called DS-HMGB1; FL-DS-HMGB1) GKGDPKKPRGKMSSYAFFVQTCREEHKKKHPDASVNFSEFSKKCSERWKTMSAKEKGKFEDMAKADKARYEREMKTYIPPKGETKKKFKDPNAPKRPPSAFFLFCSEYRPKIKGEHPGLSIGDVAKKLGEMWNNTAADDKQPYEKKAAKLKEKYEKDIAAYRAKGKPDAAKKGVVKAEKSKKKKEEEEDEEDEEDEEEEEDEEDEDEEEDDDDE; 0.043

### Prompt What value of measured koff is listed for DS-HMGB1 1-164 (ligand, oxidized Box A (disulfide Cys 22-Cys 44)) GKGDPKKPRGKMSSYAFFVQTCREEHKKKHPDASVNFSEFSKKCSERWKTMSAKEKGKFEDMAKADKARYEREMKTYIPPKGETKKKFKDPNAPKRPPSAFFLFCSEYRPKIKGEHPGLSIGDVAKKLGEMWNNTAADDKQPYEKKAAKLKEKYEKDIAAYRAK ?
### Response 0.152

All values here come from patent US20230046828A1.
